# TESTED_TARGET: Renin (Homo sapiens)
# Sequence (P00797 whole entry): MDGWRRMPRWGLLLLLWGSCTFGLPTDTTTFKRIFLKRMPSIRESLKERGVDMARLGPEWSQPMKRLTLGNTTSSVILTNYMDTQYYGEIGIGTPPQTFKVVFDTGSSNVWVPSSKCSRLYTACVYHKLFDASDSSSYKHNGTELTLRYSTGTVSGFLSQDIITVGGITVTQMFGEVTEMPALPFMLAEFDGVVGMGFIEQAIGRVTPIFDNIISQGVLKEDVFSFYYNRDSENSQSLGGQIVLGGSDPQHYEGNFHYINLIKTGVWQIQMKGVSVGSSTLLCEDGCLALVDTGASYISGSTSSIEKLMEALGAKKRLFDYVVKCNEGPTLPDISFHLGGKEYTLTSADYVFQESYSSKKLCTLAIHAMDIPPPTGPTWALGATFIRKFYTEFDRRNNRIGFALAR
# EXPERIMENT_SUMMARY: Inhibition of purified human kidney renin, radioimmunoassay using the natural substrate partially pure angiotensinogen at 10e-9 M concentration
READOUT_NAME: Ki (µM)

(P) CC(C)CC(NC(=O)[C@H](Cc1c[nH]cn1)NC(=O)[C@H](Cc1ccccc1)NC(=O)OC(C)(C)C)C(O)CC(=O)N[C@@H](CC(C)C)C(=O)NC(C)C(O)c1ccccc1 (some centres undefined)
(Q) CC(C)CC(NC(=O)[C@H](Cc1cnc[nH]1)NC(=O)[C@H](Cc1ccccc1)NC(=O)OC(C)(C)C)C(O)CC(=O)N[C@@H](CC(C)C)C(=O)NC(C)c1ccccc1 (single isomer, unassigned; (+))
(R) C=C1c2ccccc2CC(NC(=O)[C@H](CC(C)C)NC(=O)CC(O)C(CC(C)C)NC(=O)[C@H](Cc2c[nH]cn2)NC(=O)[C@H](Cc2ccccc2)NC(=O)OC(C)(C)C)c2ccccc21 (some centres undefined)
Rank the listed molecules according to Ki, from the largest value downward. Give me the labels in the order the question wants.
R, P, Q
(R: 0.32 µM, P: 0.22 µM, Q: 0.1 µM)

* * *

# TESTED_TARGET: Renin (Sus scrofa)
# EXPERIMENT_SUMMARY: Inhibition of hog kidney renin at 10e-9 M concentration
# CONDITION_PARAMETERS: read-out: I50
pIC50: −log10 of the molar value.
READOUT_NAME: pIC50

>>> observed_measurement("CC(C)CC(NC(=O)[C@H](Cc1cnc[nH]1)NC(=O)[C@H](Cc1ccccc1)NC(=O)OC(C)(C)C)C(O)CC(=O)N[C@@H](CC(C)C)C(=O)NC(C)c1ccccc1 (single isomer, unassigned; (+))")
7.85

(a) CC(C)CC(NC(=O)[C@H](Cc1c[nH]cn1)NC(=O)[C@H](Cc1ccccc1)NC(=O)OC(C)(C)C)C(O)CC(=O)N[C@@H](CC(C)C)C(=O)NC1CCN(Cc2ccccc2)CC1 (some centres undefined)
(b) CC(C)CC(NC(=O)[C@H](Cc1c[nH]cn1)NC(=O)[C@H](Cc1ccccc1)NC(=O)OC(C)(C)C)C(O)CC(=O)N[C@@H](CC(C)C)C(=O)NC(C)C(O)c1ccccc1 (some centres undefined)
Return label of the item with the larger pIC50. Candidates: a , b . Choose, then provide that item's label.
a
(a: 6.55, b: 6.32)
